# System: HEK-293T
# assay.notes: Multiplex assay against HEK293T
# Assay type: toxicity, cell-based
# assay.setup: human, 12 h, 10 µM, compound concentration 10 uM, replicate 1
quantity.kind: Population Apoptotic (%)
Use % as the unit, but write only the number.

Solved entries:
CN(C)C(=O)C(CCN1CCC(O)(c2ccc(Cl)cc2)CC1)(c1ccccc1)c1ccccc1.Cl [LOPERAMIDE HYDROCHLORIDE]	91
CCn1cc(-c2ccnc3[nH]c(-c4cccc(CN(C)C)c4)cc23)c(-c2ccc(NC(=O)N(C)C)cc2)n1	28

Return reported Population Apoptotic (%). Input compound: CCOC(=O)c1c(C)[nH]c2ccc3c(c12)CN1CCc2cc(OC)ccc2C1O3 (centres undefined)
90

Return reported Population Apoptotic (%). Input compound: COC(=N)c1nc2ccc3ncnc(Nc4ccc(OC)cc4F)c3c2s1
19
